Plant response rating, Kochia by entry:
# Test system: kochia
# experimental.protocol: Test C postemergence
# Format: in vivo, Kochia scoparia
# condition.details: postemergence; 125 g ai/ha; scale 0 to 100, 0 no effect, 100 complete control
I only need the number, thanks.

Solved cases below.
{"compound": "CCc1cc(C(=O)NC2CC2)nn1Cc1ccnc(C(F)(F)F)c1 [Compound 76]", "experimental.target": "kochia", "Plant response rating, Kochia": 90}
{"compound": "CCCc1cc(C(=O)NC2CC2)nn1Cc1ccnc(OC(F)F)c1 [Compound 205]", "experimental.target": "kochia", "Plant response rating, Kochia": 95}
{"compound": "CCNC(=O)c1cc(CC)n(Cc2cc(C(F)(F)F)nn2C)n1 [Compound 154]", "experimental.target": "kochia", "Plant response rating, Kochia": 85}
{"compound": "CCc1cc(-c2ccc(C(F)(F)F)cc2)nn1Cc1ccnc(C(F)(F)F)c1 [Compound 110]", "experimental.target": "kochia", "Plant response rating, Kochia": 90}
{"compound": "CCCNC(=O)c1cc(OCC)n(Cc2ccnc(OC(F)F)c2)n1 [Compound 136]", "experimental.target": "kochia", "Plant response rating, Kochia": 90}

Incoming: Check the records and state Plant response rating, Kochia for Cc1cc(C(=O)NCC(F)(F)F)nn1Cc1ccnc(C(F)(F)F)c1 [Compound 74]
Outgoing: 80

Incoming: Check the records and state Plant response rating, Kochia for CCc1cc(C(=O)NC2CC2)nn1Cc1ccnc(Br)c1 [Compound 220]
Outgoing: 90

Incoming: Check the records and state Plant response rating, Kochia for CCCNC(=O)c1cc(CC)n(Cc2ccnc(C(F)(F)F)c2)n1 [Compound 75]
Outgoing: 90

Incoming: Check the records and state Plant response rating, Kochia for CCc1cc(C(=O)NCC(F)(F)F)nn1Cc1ccnc(Br)c1 [Compound 224]
Outgoing: 90
